All values here come from ChEMBL document CHEMBL1201862.

Tested on: DU-145
Assay: NCI tumour cell line growth inhibition, 48 h
Calls of active or inactive are those of the source. Rule as the data show it: active = GI50 up to about 1.1 µM and inactive = higher.
Value kind: GI50

Please review the following examples before continuing.
• COc1ccc(C[C@@H]2NC[C@@H](O)[C@@H]2OC(C)=O)cc1 = 0.0191 µM (active)
• C=C1C(=O)O[C@@H]2C[C@@H](C)[C@@H]3C=CC(=O)[C@@]3(C)[C@@H](OC(=O)CCCC(=O)O[C@H]3[C@@H]4C(=C)C(=O)O[C@@H]4C[C@@H](C)[C@@H]4C=CC(=O)[C@]43C)[C@H]12 = 0.28 µM (active)

Recorded GI50 of `Clc1cc(-c2csc(Cl)c2)cs1` , please.
> 100 µM (inactive)

Recorded GI50 of `COC1=CC(=O)C2=C(C1=O)[C@H]1CC[C@]3(C)C(=O)CC[C@H]3[C@@H]1CC2` , please.
25.3 µM (inactive)

Recorded GI50 of `CO[C@H](C)[C@](O)(C(=O)OCC1=CCN2CC[C@@H](O)[C@H]12)C(C)C` , please.
> 100 µM (inactive)

Recorded GI50 of C=CCCCCCCCCCOC1C=CC(OC(C)=O)C(COC(C)=O)O1 (stereo not given) , please.
> 100 µM (inactive)

Recorded GI50 of `CCOC(=O)C(=O)/C(=C/NC(=S)c1ccncc1)C(=O)OCC` , please.
> 100 µM (inactive)

----------
Tested on: HCC 2998
Test: NCI tumour cell line growth inhibition, 48 h
Calls of active or inactive are those of the source. Cut-off read from the data, not from the text of the source: active = GI50 up to about 1.1 µM and inactive = higher.
Value kind: GI50

Please review the following examples before continuing.
- COC(=O)C1=C(C(=O)Nc2cccnc2Cl)N(c2ccc(OC)cc2[N+](=O)[O-])C(c2ccc(C)cc2)=CC1c1ccc(OC)cc1OC (configuration not stated): 8.61 µM (inactive)
- CC1=NNC(=O)[C@H]2[C@H]1CCC1[C@@H]2CC[C@]2(C)[C@@H](O)CC[C@@H]12 (some centres not stated): > 100 µM (inactive)
- Oc1c(C(Nc2cccc3cccnc23)c2ccccc2)ccc2cccnc12 (configuration not stated): 14.2 µM (inactive)
- COc1ccc(/C=C2\C(=O)N(C3OC(COC(C)=O)C(OC(C)=O)C(OC(C)=O)C3OC(C)=O)c3ccccc3N=C2N)cc1 (configuration not stated): 21.8 µM (inactive)
- NCC(=O)Nc1ccccc1: > 100 µM (inactive)

Please look at the following molecule next.
Recorded GI50 of `Nc1ccc2n[se]nc2c1` , please.
> 100 µM (inactive)

----------
Test system: DU-145
Assay: NCI tumour cell line growth inhibition, 48 h
Active and inactive are the calls of the source. Cut-off read from the data, not from the text of the source: active = GI50 up to about 1.1 µM and inactive = higher.
Value kind: GI50

Please review the following examples before continuing.
* COC(=O)C1=C(O)C(C(=O)OC)[C@]2(O)[C@H](C(=O)OC)[C@H]1C[C@@H](c1ccc([N+](=O)[O-])cc1)[C@H]2C(=O)OC (stereo not given in full) | 34.7 µM (inactive)
* CC1=C(C(=O)NNC(=O)Cc2ccccc2)CC(C(=O)NNC(=O)Cc2ccccc2)=C(C)N1 | > 100 µM (inactive)
* CCCCCCOc1ccc(C(=O)NO)cc1 | 8.05 µM (inactive)
* O=C(O)/C=C/c1c2ccc(=O)c(O)c-2oc2c(O)c(O)ccc12 | > 100 µM (inactive)

Please look at the following molecule next.
Recorded GI50 of O=C(NCCC1CNc2ccccc21)OCc1ccccc1 (stereo not given) , please.
> 100 µM (inactive)
